Readings of pIC50 for the listed molecules
SYSTEM_UNDER_TEST: EGFR (human) (UniProt P00533)
Sequence (P00533 whole entry, looked up): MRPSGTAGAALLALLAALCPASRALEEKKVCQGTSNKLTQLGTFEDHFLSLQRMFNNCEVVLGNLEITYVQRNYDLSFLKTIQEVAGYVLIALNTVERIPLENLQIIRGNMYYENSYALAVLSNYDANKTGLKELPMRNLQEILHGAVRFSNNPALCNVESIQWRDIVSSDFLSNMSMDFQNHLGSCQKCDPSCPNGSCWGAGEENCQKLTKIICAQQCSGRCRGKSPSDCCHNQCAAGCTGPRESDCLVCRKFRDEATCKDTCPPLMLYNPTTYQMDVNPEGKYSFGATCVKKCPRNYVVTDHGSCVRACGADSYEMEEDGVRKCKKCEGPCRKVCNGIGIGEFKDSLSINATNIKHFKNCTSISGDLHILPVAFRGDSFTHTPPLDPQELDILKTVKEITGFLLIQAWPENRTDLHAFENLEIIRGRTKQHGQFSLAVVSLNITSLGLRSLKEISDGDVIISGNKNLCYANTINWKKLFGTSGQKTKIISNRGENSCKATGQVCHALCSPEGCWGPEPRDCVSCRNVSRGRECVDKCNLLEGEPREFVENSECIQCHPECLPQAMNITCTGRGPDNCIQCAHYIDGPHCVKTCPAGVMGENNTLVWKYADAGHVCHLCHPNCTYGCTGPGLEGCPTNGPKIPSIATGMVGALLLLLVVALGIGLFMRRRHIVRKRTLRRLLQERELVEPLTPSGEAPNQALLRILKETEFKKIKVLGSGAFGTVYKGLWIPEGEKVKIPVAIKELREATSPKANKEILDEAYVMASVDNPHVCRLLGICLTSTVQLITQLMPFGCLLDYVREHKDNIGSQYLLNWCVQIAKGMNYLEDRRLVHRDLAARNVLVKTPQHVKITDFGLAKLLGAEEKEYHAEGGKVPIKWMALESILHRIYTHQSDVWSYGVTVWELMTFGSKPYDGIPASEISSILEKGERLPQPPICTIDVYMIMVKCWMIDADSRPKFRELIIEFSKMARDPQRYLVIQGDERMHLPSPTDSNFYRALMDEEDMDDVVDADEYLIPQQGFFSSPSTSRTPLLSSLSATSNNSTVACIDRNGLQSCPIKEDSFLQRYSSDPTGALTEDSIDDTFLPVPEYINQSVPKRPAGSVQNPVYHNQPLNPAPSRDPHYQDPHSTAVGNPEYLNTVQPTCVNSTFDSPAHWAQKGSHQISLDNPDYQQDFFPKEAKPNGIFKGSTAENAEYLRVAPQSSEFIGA
pIC50: −log10 of the molar value.
QUANTITY_MEASURED: pIC50

INSERT INTO assay_data (smiles_str, system_under_test, observed) VALUES
  ('COc1ccc(-c2ccc3c(c2)NC(=O)/C3=C\c2[nH]c(C)c(CCCN3CCOCC3)c2C)cc1', 'EGFR (human) (UniProt P00533)', '< 4.30'),
  ('Cc1[nH]c(/C=C2/C(=O)Nc3ccc(Cl)cc32)c(C)c1CCC(=O)O', 'EGFR (human) (UniProt P00533)', '< 4.30'),
  ('Cc1[nH]c(/C=C2/C(=O)Nc3cc(O)ccc32)c(C)c1CCC(=O)O', 'EGFR (human) (UniProt P00533)', '< 4.30'),
  ('Cc1c(CCC(=O)O)c[nH]c1/C=C1/C(=O)Nc2cc(Br)ccc21', 'EGFR (human) (UniProt P00533)', '< 4.30'),
  ('Cc1cccc2c1/C(=C\c1[nH]c(C)c(CCC(=O)O)c1C)C(=O)N2', 'EGFR (human) (UniProt P00533)', '< 4.30'),
  ('Cc1c(CCC(=O)O)c[nH]c1/C=C1/C(=O)Nc2cc(Cl)ccc21', 'EGFR (human) (UniProt P00533)', '< 4.30'),
  ('CCc1ccc2c(c1)/C(=C/c1[nH]cc(CCC(=O)O)c1C)C(=O)N2', 'EGFR (human) (UniProt P00533)', '< 4.30'),
  ('COc1ccc2c(c1)/C(=C/c1[nH]cc(CCC(=O)O)c1C)C(=O)N2', 'EGFR (human) (UniProt P00533)', '< 4.30'),
  ('COc1ccc2c(c1)NC(=O)/C2=C\c1[nH]c(C)c(CCCN(C)C)c1C', 'EGFR (human) (UniProt P00533)', 4.56),
  ('Cc1[nH]c(/C=C2/C(=O)Nc3cc(-c4ccccc4)ccc32)c(C)c1CCCN(C)C', 'EGFR (human) (UniProt P00533)', 5.40),
  ('Cc1[nH]c(/C=C2/C(=O)Nc3ccccc32)c(C)c1CCCN1CCOCC1', 'EGFR (human) (UniProt P00533)', '< 4.30'),
  ('Cc1c(CCC(=O)O)c[nH]c1/C=C1/C(=O)Nc2ccc(I)cc21', 'EGFR (human) (UniProt P00533)', '< 4.30'),
  ('COc1ccc2c(c1)/C(=C/c1[nH]c(C)c(CCCN(C)C)c1C)C(=O)N2', 'EGFR (human) (UniProt P00533)', 4.96),
  ('Cc1[nH]c(/C=C2/C(=O)Nc3ccc(Br)cc32)c(C)c1CCCN1CCOCC1', 'EGFR (human) (UniProt P00533)', 4.35),
  ('COc1ccc(-c2ccc3c(c2)NC(=O)/C3=C\c2[nH]c(C)c(CCCN(C)C)c2C)cc1', 'EGFR (human) (UniProt P00533)', 5.41),
  ('Cc1[nH]c(/C=C2/C(=O)Nc3ccc(S(=O)(=O)N(C)C)cc32)c(C)c1CCCN(C)C', 'EGFR (human) (UniProt P00533)', 4.95),
  ('Cc1ccc2c(c1)/C(=C\c1[nH]c(C)c(CCCN(C)C)c1C)C(=O)N2', 'EGFR (human) (UniProt P00533)', 4.60),
  ('COc1ccc(-c2ccc3c(c2)NC(=O)/C3=C\c2[nH]c(C)c(CCC(=O)O)c2C)cc1', 'EGFR (human) (UniProt P00533)', '< 4.30'),
  ('Cc1[nH]c(/C=C2/C(=O)Nc3ccc(I)cc32)c(C)c1CCC(=O)O', 'EGFR (human) (UniProt P00533)', '< 4.30');

These data points were gathered from the Kinase Knowledgebase extract (Sharma et al. 2016).
